Biological target: human NK-2 receptor (Homo sapiens)
Construct: expressed in transfected cells; host or cells: CHO-hNK-2R cells (CHO-derived), membrane preparation
Sequence (P21452 1-398): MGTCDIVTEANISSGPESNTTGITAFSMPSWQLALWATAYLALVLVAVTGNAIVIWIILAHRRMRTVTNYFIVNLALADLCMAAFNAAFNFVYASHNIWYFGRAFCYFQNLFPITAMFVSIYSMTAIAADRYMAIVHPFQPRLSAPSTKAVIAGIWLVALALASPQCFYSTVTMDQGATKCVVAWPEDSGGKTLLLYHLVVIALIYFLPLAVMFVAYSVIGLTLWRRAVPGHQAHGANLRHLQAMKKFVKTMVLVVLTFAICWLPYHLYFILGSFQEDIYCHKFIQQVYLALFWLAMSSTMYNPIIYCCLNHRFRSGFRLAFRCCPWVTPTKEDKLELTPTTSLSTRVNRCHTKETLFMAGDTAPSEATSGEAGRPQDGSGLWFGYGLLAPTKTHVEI
Experiment: NK-2 Receptor Binding Assay (CHO-hNK-2R membranes, iodohistidyl-neurokinin A)
Conditions: inhibition of neurokinin A binding at ten micromolar, read-out: Percent Inhibition @ 10 μM
Reported Endpoint: inhibition at 10 µM (%)
Please state the figure in %; there is no need to write the unit.

{"columns": ["Compound", "Unit Abbrev", "inhibition at 10 µM"],
 "data": [
  ["COc1cc(-c2nc3ccccc3n2Cc2ccccc2I)cc(OC)c1OC [Example 50]", "%", 87.4],
  ["COc1cc(-c2nc3ccccc3n2Cc2ccccc2Br)cc(OC)c1OC [Example 51]", "%", 84.8],
  ["COc1cc(-c2nc3ccc(OCCN4CCCCC4)cc3n2Cc2ccccc2)cc(OC)c1OC [Example 71]", "%", 70.1]
]}

Look up and report inhibition at 10 µM, with human NK-2 receptor (Homo sapiens) as system, for Cc1cccc(-c2nc3ccc(OCCN(C(C)C)C(C)C)cc3n2Cc2ccccc2)c1 [Example 91]
60.7

Look up and report inhibition at 10 µM, with human NK-2 receptor (Homo sapiens) as system, for COc1cc(-c2nc3ccc(O)cc3n2Cc2ccccc2Br)cc(OC)c1OC [Example 114]
57.4
